- study-target: Delta-5-Desaturase (D5D) (Mus musculus (Mouse))
- Sequence (Q920L1 whole entry): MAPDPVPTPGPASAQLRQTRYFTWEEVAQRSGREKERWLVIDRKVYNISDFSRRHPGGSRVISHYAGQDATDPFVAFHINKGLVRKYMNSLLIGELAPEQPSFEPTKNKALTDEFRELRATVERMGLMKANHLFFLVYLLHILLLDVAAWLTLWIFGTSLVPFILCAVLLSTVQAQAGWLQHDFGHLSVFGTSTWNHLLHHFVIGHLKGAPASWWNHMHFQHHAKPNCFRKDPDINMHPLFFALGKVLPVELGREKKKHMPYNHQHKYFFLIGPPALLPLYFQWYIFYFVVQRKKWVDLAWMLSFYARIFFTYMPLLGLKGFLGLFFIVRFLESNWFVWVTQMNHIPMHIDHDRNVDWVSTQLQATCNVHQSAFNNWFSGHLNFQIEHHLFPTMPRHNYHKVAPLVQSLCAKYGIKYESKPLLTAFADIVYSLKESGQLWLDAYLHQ
- protocol-notes: In vivo measurement of Delta-5-Desaturase inhibitory activity (plasma AA/DGLA ratio in DIO mice)
- test-settings: single oral dose 30 mg/kg, read-out: Average % D5D Inhibition expressed as Plasma Endogenous AA/DGLA Ratio
measured-quantity: inhibition in vivo at 30 mg/kg (%)
Answer in %, number only, no unit symbol.

>  <compound>
CN(C)c1ccn2c(=O)c(-c3cnn(CC(F)(F)C(F)(F)F)c3)c(C(F)(F)F)nc2c1 [Example 1-22]

>  <inhibition in vivo at 30 mg/kg / %>
59

$$$$
>  <compound>
[2H]C([2H])([2H])Oc1ccn2c(=O)c(-c3ccc(OCC(F)(F)F)cc3)c(C(F)(F)F)nc2n1 [Example 1-59]

>  <inhibition in vivo at 30 mg/kg / %>
73

$$$$
>  <compound>
N#Cc1ccn2c(=O)c(-c3cnn(CC(F)(F)C(F)(F)F)c3)c(C(F)(F)F)nc2c1 [Example 1-27]

>  <inhibition in vivo at 30 mg/kg / %>
78

$$$$
>  <compound>
Nc1ccn2c(=O)c(-c3ccc(OCC(F)(F)F)cc3)c(C(F)(F)F)nc2c1 [Example 6-2]

>  <inhibition in vivo at 30 mg/kg / %>
66

$$$$
>  <compound>
COc1ccn2c(=O)c(-c3cnn(CC(F)(F)C(F)(F)F)c3)c(C(F)(F)F)nc2c1 [Example 1-68]

>  <inhibition in vivo at 30 mg/kg / %>
80

$$$$

// switching to the query compound
Form field: reported inhibition in vivo at 30 mg/kg of COc1ccn2c(=O)c(-c3ccc(OCC(F)F)cc3)c(C(F)(F)F)nc2c1 [Example 1-10] 75

* * *

- study-target: Delta-5-Desaturase (D5D) (Homo sapiens (Human))
- Sequence (O60427 whole entry, species assumed): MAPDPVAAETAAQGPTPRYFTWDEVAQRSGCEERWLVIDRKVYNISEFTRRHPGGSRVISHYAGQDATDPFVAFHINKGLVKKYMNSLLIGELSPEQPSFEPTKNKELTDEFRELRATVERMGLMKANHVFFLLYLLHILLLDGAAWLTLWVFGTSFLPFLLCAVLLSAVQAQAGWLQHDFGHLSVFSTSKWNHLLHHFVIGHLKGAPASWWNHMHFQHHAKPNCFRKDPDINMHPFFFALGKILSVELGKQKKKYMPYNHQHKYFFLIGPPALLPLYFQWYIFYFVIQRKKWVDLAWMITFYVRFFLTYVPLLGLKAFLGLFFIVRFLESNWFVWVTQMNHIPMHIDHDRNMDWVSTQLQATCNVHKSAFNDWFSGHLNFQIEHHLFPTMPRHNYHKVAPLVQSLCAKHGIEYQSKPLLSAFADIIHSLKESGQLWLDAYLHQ
- protocol-notes: In vitro measurement of Delta-5-Desaturase inhibitory activity using DGLA-CoA and Arachidonyl-CoA mass spectrometric assays
- Assay type: biochemical
- test-settings: membrane preparations of D5D-overexpressing HEK293 6E cells; averaged over at least two independent runs
- Method: In vitro Measurement of Delta-5-Desaturase Inhibitory Activity using DGLA-CoA and Arachidonyl-CoA Mass Spectrometric Assays Membrane preparations of D5D-overexpressing HEK293 6E cells were prepared in which the total protein concentration was 5.6 mg/mL. […] DGLA-CoA and Arachidonyl-CoA were detected by multiple reaction monitoring (MRM) of the doubly charged parent ions at m/z 526.6 and 525.6, respectively. […]
pIC50: −log10 of the molar value.
Values of pIC50 greater than or equal to 7 map to YES; values below map to NO.

Completed entries (count: 2):
>  <compound>
COc1ccn2c(=O)c(-c3ncn(CC(F)(F)C(F)(F)F)n3)c(C(F)(F)F)nc2c1

>  <discrete-label>
NO

$$$$
>  <compound>
COc1ccn2c(=O)c(-c3cccc(OCC(F)(F)F)c3)c(C(F)(F)F)nc2c1

>  <discrete-label>
NO

$$$$

Is pIC50 at least 7? Consider `Cc1ccc2nc(C(F)(F)F)c(-c3cnn(CCC(F)(F)F)c3)c(=O)n2n1` YES

Is pIC50 at least 7? Consider `COc1ccn2c(=O)c(-c3cnc(OCC(F)(F)F)s3)c(C(F)(F)F)nc2c1` YES

Is pIC50 at least 7? Consider `COc1ccn2c(=O)c(-c3cnn(CC(F)(F)C(F)(F)F)c3)c(C(F)(F)F)nc2c1F` YES

Is pIC50 at least 7? Consider `COc1ccn2c(=O)c(-c3ccc(OCC(F)(F)F)nc3)c(C(F)(F)F)nc2c1` YES

Is pIC50 at least 7? Consider `O=c1ccn2c(=O)c(-c3ccc(OCC(F)(F)F)cc3)c(C(F)(F)F)nc2[nH]1` NO

Is pIC50 at least 7? Consider `COc1ccn2c(=O)c(-c3cnn(CCC#N)c3)c(C(F)(F)F)nc2c1` NO

Is pIC50 at least 7? Consider `COc1ccn2c(=O)c(-c3cc(CCC(F)(F)F)no3)c(C(F)(F)F)nc2c1` YES

Is pIC50 at least 7? Consider COc1ccn2c(=O)c(-c3ccc(OCC4CC4(F)F)cc3)c(C(F)(F)F)nc2c1 (stereo not shown) YES

Is pIC50 at least 7? Consider `Cc1cn2c(=O)c(-c3cnc(OCC(F)(F)F)nc3)c(C(F)(F)F)nc2cn1` NO

Is pIC50 at least 7? Consider `O=c1c(-c2cnn(CC(F)(F)C(F)(F)F)c2)c(C(F)(F)F)nc2ccccn12` YES

Is pIC50 at least 7? Consider `COc1ccn2c(=O)c(-c3ccc(OCCF)cc3)c(C(F)(F)F)nc2n1` NO

Is pIC50 at least 7? Consider `CC(C)c1ccn2c(=O)c(-c3ccc(OCC(F)(F)F)cc3)c(C(F)(F)F)nc2c1` NO

Is pIC50 at least 7? Consider `[2H]C([2H])([2H])Oc1ccn2c(=O)c(-c3ccc(OCC4CC4)cc3)c(C(F)(F)F)nc2c1` YES

Is pIC50 at least 7? Consider `COc1ccn2c(=O)c(-c3ccc(OCC(F)(F)F)nc3)c(C(F)F)nc2c1` YES

Is pIC50 at least 7? Consider `O=c1c(-c2cnn(CC(F)(F)C(F)(F)F)c2)c(C(F)(F)F)nc2cc(O)c(F)cn12` NO
